# Assay summary: Cytotoxicity against human A549 cells assessed as growth inhibition by MTT assay
# Assay type: cell-based
Recorded GI50 values for a group of molecules are listed next.
Property measured: GI50

Query smiles	Result
COc1cc(-c2nc(SCCCn3cnc4sc5c(c4c3=O)CCCC5)n(CCC(F)(F)C(F)(F)C(F)(F)C(F)(F)C(F)(F)C(F)(F)F)c(=O)c2C#N)cc(OC)c1OC	> 100 µg/mL
CCCCCCCc1cc2c(=O)n(CCCSc3nc(-c4cc(OC)c(OC)c(OC)c4)c(C#N)c(=O)[nH]3)cnc2s1	90.5 µg/mL
COc1cc(-c2nc(SCCCn3cnc4sc5c(c4c3=O)CCCC5)n(Cc3c(F)c(F)c(F)c(F)c3F)c(=O)c2C#N)cc(OC)c1OC	> 100 µg/mL
CCCCCc1cc2c(=O)n(CCCSc3nc(-c4cc(OC)c(OC)c(OC)c4)c(C#N)c(=O)[nH]3)cnc2s1	> 100 µg/mL
